Where do these numbers come from? They come from paper PMC11269731.

Target: Pannexin-1 (rPanx1) (Rattus norvegicus)
Construct: Rattus norvegicus Pannexin-1 cDNA in pRK5 (pRK5-rPanx1)
Sequence (P60570 whole entry): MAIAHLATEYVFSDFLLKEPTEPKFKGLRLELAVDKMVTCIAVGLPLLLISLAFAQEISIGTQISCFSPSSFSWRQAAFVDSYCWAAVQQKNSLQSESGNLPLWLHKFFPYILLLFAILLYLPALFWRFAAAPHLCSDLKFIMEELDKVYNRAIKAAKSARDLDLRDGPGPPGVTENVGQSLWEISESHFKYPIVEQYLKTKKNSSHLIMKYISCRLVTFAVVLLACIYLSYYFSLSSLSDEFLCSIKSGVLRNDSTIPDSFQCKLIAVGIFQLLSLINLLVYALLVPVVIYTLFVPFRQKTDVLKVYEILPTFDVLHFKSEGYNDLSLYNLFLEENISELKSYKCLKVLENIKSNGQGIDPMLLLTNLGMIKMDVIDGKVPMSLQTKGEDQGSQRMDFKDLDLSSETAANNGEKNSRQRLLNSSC
Assay: whole-cell patch clamp of HEK-293T cells transfected with rat Panx1
metric: IC50 (µM)
Answers are plain numbers, in µM.

structure_string=CCCN(CCC)S(=O)(=O)c1ccc(C(O)(C(F)(F)F)C(F)(F)F)cc1 output_unit=µM data_value=0.054

Attention now shifts to the item below.
// lookup IC50 for CCCN(CCC)S(=O)(=O)c1ccc(C(=O)O)cc1
74.6
